test system: A-431; assay: Cytotoxicity against human A431 cells after 96 hrs by sulforhodamine B assay; assay type: functional, cell-based; conditions: A-431, 96 h
Each item that follows carries a reported IC50.
Express the result in µM but write the number alone.

**Q:** Return reported IC50; argument: C=C(C)[C@@H]1CC[C@]2([C@H](O)c3cnn(C)c3C(=O)OC)CC[C@]3(C)[C@H](CC[C@@H]4[C@@]5(C)CC[C@H](OC(C)=O)C(C)(C)[C@@H]5CC[C@]43C)[C@@H]12
**A:** 12.4

**Q:** What value of IC50 has been reported for the following compound? C=C(C)[C@@H]1CC[C@]2([C@@H]3OC(=O)C=C3N(C)C)CC[C@]3(C)[C@H](CC[C@@H]4[C@@]5(C)CC[C@H](OC(C)=O)C(C)(C)[C@@H]5CC[C@]43C)[C@@H]12
**A:** 3.3

Next:
**Q:** Quick one: IC50 of C=C(C)[C@@H]1CC[C@]2([C@H](O)C#CCO)CC[C@]3(C)[C@H](CC[C@@H]4[C@@]5(C)CC[C@H](OC(C)=O)C(C)(C)[C@@H]5CC[C@]43C)[C@@H]12 ?
**A:** 10.5

**Q:** # query: IC50 of entry C=C(C)[C@@H]1CC[C@]2([C@@H]3OC(=O)C=C3NC3CC3)CC[C@]3(C)[C@H](CC[C@@H]4[C@@]5(C)CC[C@H](OC(C)=O)C(C)(C)[C@@H]5CC[C@]43C)[C@@H]12
**A:** 2.9

**Q:** Query: IC50; subject: C=C(C)[C@@H]1CC[C@]2([C@H](O)c3nn[nH]c3C(=O)OC)CC[C@]3(C)[C@H](CC[C@@H]4[C@@]5(C)CC[C@H](OC(C)=O)C(C)(C)[C@@H]5CC[C@]43C)[C@@H]12
**A:** 16.6

**Q:** Sample C=C(C)[C@@H]1CC[C@]2([C@H](O)c3c(C(=O)OCC)n[nH]c3C(=O)OC)CC[C@]3(C)[C@H](CC[C@@H]4[C@@]5(C)CC[C@H](OC(C)=O)C(C)(C)[C@@H]5CC[C@]43C)[C@@H]12 — what was its IC50?
**A:** 11.7

**Q:** Please look up its IC50: C=C(C)[C@@H]1CC[C@]2([C@@H]3OC(=O)C=C3N3CCCC3)CC[C@]3(C)[C@H](CC[C@@H]4[C@@]5(C)CC[C@H](OC(C)=O)C(C)(C)[C@@H]5CC[C@]43C)[C@@H]12
**A:** 2.1

**Q:** Name the reported IC50 value associated with the compound C=C(C)[C@@H]1CC[C@]2([C@H](O)C3=C(C(=O)OC)C(C(=O)OCC)N=N3)CC[C@]3(C)[C@H](CC[C@@H]4[C@@]5(C)CC[C@H](OC(C)=O)C(C)(C)[C@@H]5CC[C@]43C)[C@@H]12 (some centres undefined)
**A:** 7.6

**Q:** For C=C(C)[C@@H]1CC[C@]2([C@H](O)/C=C\CO)CC[C@]3(C)[C@H](CC[C@@H]4[C@@]5(C)CC[C@H](OC(C)=O)C(C)(C)[C@@H]5CC[C@]43C)[C@@H]12 , what is its reported IC50?
**A:** 12.4
